Hello, the source for this data is patent US8614327B2, in case you need it.

Quick reference: pEC50 of the listed items.
- test target: ΔF508-CFTR (Homo sapiens, UniProt P13569, DEL508-508)
- Sequence (P13569 with tags, fused parts or gaps DEL508-508): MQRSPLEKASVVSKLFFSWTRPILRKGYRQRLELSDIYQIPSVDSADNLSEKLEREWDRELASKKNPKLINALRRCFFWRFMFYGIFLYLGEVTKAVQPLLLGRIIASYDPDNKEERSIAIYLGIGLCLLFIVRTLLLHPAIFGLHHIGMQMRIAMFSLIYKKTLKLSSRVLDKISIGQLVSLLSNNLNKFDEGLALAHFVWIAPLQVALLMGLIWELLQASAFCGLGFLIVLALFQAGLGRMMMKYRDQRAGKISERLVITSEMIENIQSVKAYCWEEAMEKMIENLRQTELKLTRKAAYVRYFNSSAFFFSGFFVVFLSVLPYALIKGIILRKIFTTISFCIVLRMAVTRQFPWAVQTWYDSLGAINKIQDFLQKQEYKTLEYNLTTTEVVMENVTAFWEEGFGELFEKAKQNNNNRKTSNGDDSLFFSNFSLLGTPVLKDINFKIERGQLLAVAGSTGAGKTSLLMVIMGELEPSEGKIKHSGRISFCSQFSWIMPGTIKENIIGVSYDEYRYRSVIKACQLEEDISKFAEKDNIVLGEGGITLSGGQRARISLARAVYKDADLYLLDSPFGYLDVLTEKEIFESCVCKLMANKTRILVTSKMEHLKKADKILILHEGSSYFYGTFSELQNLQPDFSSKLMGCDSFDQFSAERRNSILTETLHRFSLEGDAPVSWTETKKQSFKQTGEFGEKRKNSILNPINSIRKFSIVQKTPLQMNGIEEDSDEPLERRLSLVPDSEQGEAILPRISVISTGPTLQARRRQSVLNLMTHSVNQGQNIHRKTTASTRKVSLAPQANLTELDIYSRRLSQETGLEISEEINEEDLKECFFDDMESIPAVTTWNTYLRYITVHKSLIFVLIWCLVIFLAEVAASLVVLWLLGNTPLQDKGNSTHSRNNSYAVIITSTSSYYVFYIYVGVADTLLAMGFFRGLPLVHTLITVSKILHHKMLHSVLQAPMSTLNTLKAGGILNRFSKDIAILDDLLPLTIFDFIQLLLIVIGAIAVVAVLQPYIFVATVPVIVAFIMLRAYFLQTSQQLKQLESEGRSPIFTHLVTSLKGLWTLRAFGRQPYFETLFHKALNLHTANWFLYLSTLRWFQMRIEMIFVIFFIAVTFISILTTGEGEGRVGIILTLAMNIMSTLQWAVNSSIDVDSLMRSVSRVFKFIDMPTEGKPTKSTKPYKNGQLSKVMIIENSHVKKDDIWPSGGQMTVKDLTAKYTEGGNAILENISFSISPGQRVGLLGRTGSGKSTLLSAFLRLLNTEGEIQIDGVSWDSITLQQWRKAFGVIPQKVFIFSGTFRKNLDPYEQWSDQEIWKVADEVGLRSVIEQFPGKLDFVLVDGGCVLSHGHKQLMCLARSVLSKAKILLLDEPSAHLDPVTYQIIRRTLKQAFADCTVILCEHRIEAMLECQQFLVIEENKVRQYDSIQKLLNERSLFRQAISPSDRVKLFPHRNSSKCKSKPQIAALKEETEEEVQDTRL
- assay comment: Membrane potential optical (FRET/VIPR) assay, identification of potentiator compounds
- study conditions: Table 3; assay not given
pEC50: −log10 of the molar value.

Some compounds with known pEC50 results, for comparison:
compound: CCOc1ccccc1-c1cc(C(C)(C)C)c(O)cc1NC(=O)c1c[nH]c2ccccc2c1=O
test target: ΔF508-CFTR (Homo sapiens, UniProt P13569, DEL508-508)
pEC50: > 5.00
//
compound: CCc1ccc(NC(=O)OC)cc1NC(=O)c1c[nH]c2ccccc2c1=O
test target: ΔF508-CFTR (Homo sapiens, UniProt P13569, DEL508-508)
pEC50: 4.60 to 5.00
//
compound: CC1(C)CCNc2cc(NC(=O)c3c[nH]c4ccccc4c3=O)ccc21
test target: ΔF508-CFTR (Homo sapiens, UniProt P13569, DEL508-508)
pEC50: > 5.00
//
compound: CCOc1cccc2c(=O)c(C(=O)Nc3cc4[nH]ccc4cc3C(C)(C)C)c[nH]c12
test target: ΔF508-CFTR (Homo sapiens, UniProt P13569, DEL508-508)
pEC50: 4.60 to 5.00
//
compound: CC(C)(C)c1cc2cc[nH]c2cc1NC(=O)c1c[nH]c2cc(F)c(F)cc2c1=O
test target: ΔF508-CFTR (Homo sapiens, UniProt P13569, DEL508-508)
pEC50: > 5.00

Exercise: What value of pEC50 has been reported for the following compound? COc1cc(N2CCCC2)ccc1NC(=O)c1c[nH]c2ccccc2c1=O
Key: > 5.00

Exercise: What value of pEC50 has been reported for the following compound? O=C(Nc1ccccc1OCc1ccccc1)c1c[nH]c2ccccc2c1=O
Key: > 5.00
